# credit: paper PMC4152390

Quick reference: DAT/SERT ratio of the listed items.
- assaySystem: DAT (Rattus norvegicus)
- Sequence (P23977 whole entry): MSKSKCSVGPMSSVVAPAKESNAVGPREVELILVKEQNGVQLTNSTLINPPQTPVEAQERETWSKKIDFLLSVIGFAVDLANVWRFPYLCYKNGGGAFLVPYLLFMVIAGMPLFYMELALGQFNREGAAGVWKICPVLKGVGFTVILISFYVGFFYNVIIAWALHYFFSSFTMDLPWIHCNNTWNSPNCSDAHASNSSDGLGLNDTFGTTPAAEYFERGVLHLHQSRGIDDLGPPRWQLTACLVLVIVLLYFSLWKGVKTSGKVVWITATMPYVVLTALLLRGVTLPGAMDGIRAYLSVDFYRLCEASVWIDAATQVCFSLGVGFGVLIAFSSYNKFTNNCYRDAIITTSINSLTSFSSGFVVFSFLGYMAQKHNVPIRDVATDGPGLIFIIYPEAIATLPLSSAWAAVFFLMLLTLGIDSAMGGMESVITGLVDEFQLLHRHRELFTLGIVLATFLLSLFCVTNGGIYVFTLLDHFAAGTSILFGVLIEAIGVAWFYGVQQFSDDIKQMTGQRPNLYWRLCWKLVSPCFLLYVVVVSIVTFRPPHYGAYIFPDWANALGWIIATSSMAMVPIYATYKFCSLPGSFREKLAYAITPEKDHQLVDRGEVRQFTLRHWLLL
- assayOverview: [3H]dopamine uptake inhibition in rat brain synaptosomes
- Type: biochemical
- appliedConditions: selectivity from uptake IC50 values at DAT and SERT
observable: DAT/SERT ratio

- CCCC(C(=O)c1ccccc1)N1CCCC1 (stereo not shown): >781
- CCC(C(=O)c1ccccc1)N1CCCC1 (stereo not shown): >159
- CCCC(C(=O)c1ccc2c(c1)OCO2)N1CCCC1 (stereo not shown): 806
- CC(C(=O)c1ccccc1)N1CCCC1 (stereo not shown): >51

====

- assaySystem: NET (Rattus norvegicus, UniProt Q63380)
- Sequence (Q63380 1-617): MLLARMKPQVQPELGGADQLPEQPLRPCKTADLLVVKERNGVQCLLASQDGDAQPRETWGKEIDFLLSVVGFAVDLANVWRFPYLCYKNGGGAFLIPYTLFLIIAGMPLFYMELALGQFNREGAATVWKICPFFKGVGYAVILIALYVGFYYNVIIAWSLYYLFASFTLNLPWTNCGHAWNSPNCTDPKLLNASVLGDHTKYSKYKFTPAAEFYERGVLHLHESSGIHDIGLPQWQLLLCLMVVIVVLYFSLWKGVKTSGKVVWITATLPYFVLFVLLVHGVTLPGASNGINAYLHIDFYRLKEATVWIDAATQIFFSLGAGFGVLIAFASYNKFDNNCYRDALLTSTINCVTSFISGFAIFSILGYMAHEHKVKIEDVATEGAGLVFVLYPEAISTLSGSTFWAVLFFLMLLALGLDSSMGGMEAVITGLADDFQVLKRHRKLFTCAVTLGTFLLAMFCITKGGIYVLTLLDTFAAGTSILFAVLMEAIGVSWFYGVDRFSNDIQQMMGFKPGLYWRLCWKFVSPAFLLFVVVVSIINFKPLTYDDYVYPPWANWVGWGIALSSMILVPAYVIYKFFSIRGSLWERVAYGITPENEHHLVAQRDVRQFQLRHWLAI
- assayOverview: [3H]norepinephrine uptake inhibition in rat brain synaptosomes
- appliedConditions: read-out: [3H]Norepinephrine uptake, IC50 at NET; rat brain synaptosomes (whole brain minus striatum and cerebellum); 10 nM [3H]norepinephrine; mean±SD, n=3
pIC50: −log10 of the molar value.
observable: pIC50

• CCCC(C(=O)c1ccccc1)N1CCCC1 (stereo not drawn) [α-PVP, α-pyrrolidinovalerophenone] = 7.85
• CCCC(C(=O)c1ccc2c(c1)OCO2)N1CCCC1 (stereo not shown) [MDPV, 3,4-methylenedioxypyrovalerone] = 7.59
• CC(C(=O)c1ccccc1)N1CCCC1 (stereo not drawn) [α-PPP, α-pyrrolidinopropiophenone] = 6.35
• CCC(C(=O)c1ccccc1)N1CCCC1 (stereo not drawn) [α-PBP, α-pyrrolidinobutiophenone] = 7.04
